- testedOn: HLA-A*01:01
- assayRemarks: IEDB peptide-MHC binding, purified MHC/direct/fluorescence; filed as Kd, often an IC50 or EC50 that approximates it; bounds were set here for any values at or beyond the usual limits of such assays
- assayConditions: source organism: Shigella flexneri
experimentalEndpoint: Kd

Prompt: Quick one: give measured Kd for DRLHPPNKL
Response: ≥ 20 µM

---

- testedOn: HLA-B*51:01
- assayRemarks: IEDB peptide-MHC binding, purified MHC/direct/fluorescence; filed as Kd, often an IC50 or EC50 that approximates it; bounds were set here for any values at or beyond the usual limits of such assays
- assayConditions: source organism: Rickettsia typhi
pKd: −log10 of the molar value.
experimentalEndpoint: pKd

Prompt: Quick one: give measured pKd for ELYPTVNTY
Response: ≤ 4.70
